target: mAChR M1 (UniProt P11229); test: mAChR M1 cell-based functional assay (calcium mobilization, potentiation of EC20 acetylcholine response); conditions: % ACh maximum at 30 μM; mAChR M1-expressing CHO-K1 cells, calcium flux
reportedProperty: Emax (%)

                               samplesmiles                 targetdesc  recordedresult
0  O=C1c2cccnc2CN1Cc1c(F)cc(-c2ccc3c(c2)C2(OCCO2)C(=O)N3)cc1F  mAChR M1 (UniProt P11229)              48
1     Cn1cc(-c2ccc(CN3Cc4ccccc4C3=O)nc2)cn1  mAChR M1 (UniProt P11229)              37

* * *

biological target: UniProtKB P11229; assay: mAChR M1 cell-based functional assay (calcium mobilization, potentiation of EC20 acetylcholine response); settings: positive allosteric modulation of EC20 ACh response, mAChR M1 CHO-K1 cells; <5 estimated where no plateau
reportedProperty: pEC50

In [3]: df
Out[3]:
                                    molecule        targetdesc  recordedresult
 0  O=C1c2cccnc2CN1Cc1c(F)cc(-c2ccc3nccn3c2)cc1F [Example B80]  UniProtKB P11229            6.07
 1  Cc1cc(-c2ccc(CN3Cc4ncccc4C3=O)c(F)c2)cnc1F [Example B34]  UniProtKB P11229            5.60
 2  Cn1cc2cc(-c3cccc(CN4Cc5ncccc5C4=O)c3F)ccc2n1 [Example B106]  UniProtKB P11229            5.42
 3  Cn1cc2ccc(-c3ccc(CN4Cc5ncccc5C4=O)c(F)c3)cc2n1 [Example B35]  UniProtKB P11229            5.71
 4  COc1ccc(-c2ccc(CN3Cc4ncccc4C3=O)c(F)c2)cc1 [Example B50]  UniProtKB P11229            6.01
 5  Cn1cc2c(-c3ccc(CN4Cc5ncccc5C4=O)c(F)c3)cccc2n1 [Example B32]  UniProtKB P11229            6.07
 6  Cn1cc2cc(-c3cc(F)c(CN4Cc5ncccc5C4=O)cc3F)ccc2n1 [Example B105]  UniProtKB P11229            6.39
 7  CN1Cc2ccc(-c3cc(F)c(CN4Cc5ncccc5C4=O)c(F)c3)cc2C1 [Example B107]  UniProtKB P11229            5.76
 8  Cn1cc2cc(-c3ccc(CN4Cc5ncccc5C4=O)c(F)c3)ccc2n1 [Example B1]  UniProtKB P11229            5.96
 9  O=C1c2ncccc2CN1Cc1ccc(-c2cccc3ncccc23)cc1F [Example B77]  UniProtKB P11229            5.74
10  Cn1cc2c(-c3ccc(CN4Cc5cccnc5C4=O)c(F)c3)cccc2n1 [Example B62]  UniProtKB P11229            6.07
11  Cn1cnc2ccc(-c3cc(F)c(CN4Cc5ncccc5C4=O)c(F)c3)cc21 [Example B82]  UniProtKB P11229            6.40
12  O=C1c2ncccc2CN1Cc1ccc(-c2ccc3cnccc3c2)cc1Cl [Example B69]  UniProtKB P11229            5.87
13  O=C1c2cccnc2CN1Cc1c(F)cc(-c2ccc3c(c2)OCCO3)cc1F [Example B94]  UniProtKB P11229            6.71
14  Cn1ncc2cc(-c3ccc(CN4Cc5ncccc5C4=O)c(F)c3)ccc21 [Example B27]  UniProtKB P11229             6.1
15  O=C1c2cccnc2CN1Cc1ccc(-c2ccc3[nH]ncc3c2)cc1F [Example B36]  UniProtKB P11229            6.28
16  CN1CC=C(c2ccc(CN3Cc4ncccc4C3=O)c(F)c2)CC1 [Example B53]  UniProtKB P11229            5.51
17  Cn1cc2cc(-c3ccc(CN4Cc5cccnc5C4=O)c(F)c3)ccc2n1 [Example B71]  UniProtKB P11229            6.15
18  O=C1c2cccnc2CN1Cc1ccc(-c2cncc(Cl)c2)cc1F [Example B31]  UniProtKB P11229            5.34

* * *

Quick reference for pEC50 among some compounds
molecular target: mAChR M1 (UniProt P11229); experiment: mAChR M1 cell-based functional assay (calcium mobilization, potentiation of EC20 acetylcholine response); settings: positive allosteric modulation of EC20 ACh response, mAChR M1 CHO-K1 cells; >10 μM estimated where no plateau; read-out: EC50
pEC50: −log10 of the molar value.

Here are 5 compounds together with their reported answers.
In [3]: df
Out[3]:
                               samplesmiles  reportedproperty  recordedresult
0  Cc1nc(-c2ccc(CN3Cc4ccccc4S3(=O)=O)cc2)cs1             pEC50          < 5.00
1  O=C1c2cccnc2CN1Cc1c(F)cc(-c2cccc3ncccc23)cc1F             pEC50          < 5.00
2   O=S1(=O)c2ccccc2CN1Cc1ccc(Oc2ccccc2)cc1             pEC50          < 5.00
3  O=C1c2ncccc2CN1Cc1ccc(-c2cncc(Cl)c2)cc1F             pEC50          < 5.00
4  Cn1cc(-c2ccc(CN3Cc4cccnc4C3=O)c(F)c2)cn1             pEC50          < 5.00

Field: next compound
Looking for the measured pEC50 of O=C1c2cccnc2CN1Cc1c(F)cc(-c2cccc3nccn23)cc1F , can you help?
< 5.00

* * *

target: mAChR M1 (UniProt P11229); assay: mAChR M1 cell-based functional assay (calcium mobilization, potentiation of EC20 acetylcholine response); details: positive allosteric modulation of EC20 ACh response, mAChR M1 CHO-K1 cells; <5 estimated where no plateau
reportedProperty: pEC50

Here are 3 molecules together with their reported answers.
>>> print(df.to_string())
                               samplesmiles  recordedresult
0  Cc1cc(-c2cnc(Cl)c(C)c2)ccc1CN1Cc2cccnc2C1=O           <5.00
1  Cn1ncc2cc(-c3ccc(CN4Cc5ccccc5C4=O)c(F)c3)ccc21           <5.00
2   O=C1c2cccnc2CN1Cc1ccc(-c2ccnc(F)c2)cc1F           <5.00

Looking for the measured pEC50 of O=C1c2cccnc2CN1Cc1ccc(-c2cn3ccnc3cn2)cc1F , can you help?
<5.00

Looking for the measured pEC50 of O=S1(=O)c2ccccc2CN1Cc1ccc(-n2cccn2)cc1 , can you help?
<5.00

* * *

biological target: mAChR M1 (UniProt P11229); assay: mAChR M1 cell-based functional assay (calcium mobilization, potentiation of EC20 acetylcholine response); details: positive allosteric modulation of EC20 ACh response, mAChR M1 CHO-K1 cells; <5 estimated where no plateau
reportedProperty: pEC50

In [3]: df
Out[3]:
                            samplesmiles  recordedresult
0  Cn1cc(-c2ccc(CN3Cc4ccccc4C3=O)cn2)cn1           <5.00

Under mAChR M1 (UniProt P11229): pEC50 value of Cn1cc(-c2ccc(CN3Cc4ccccc4C3=O)nc2)cn1 ?
<5.00

Under mAChR M1 (UniProt P11229): pEC50 value of Cc1noc(-c2ccc(CN3Cc4ccccc4S3(=O)=O)cc2)n1 ?
<5.00

Under mAChR M1 (UniProt P11229): pEC50 value of O=S1(=O)c2ccccc2CN1Cc1ccc(-c2cnns2)cc1 ?
<5.00

Under mAChR M1 (UniProt P11229): pEC50 value of COc1ncccc1-c1ccc(CN2Cc3ncccc3C2=O)c(F)c1 ?
<5.00

Under mAChR M1 (UniProt P11229): pEC50 value of O=S1(=O)c2ccccc2CN1Cc1ccc(Oc2ccccc2)cc1 ?
<5.00
